// provenance: the kinase profiling compilation of Christmann-Franck et al. (2016)

- tested_target: UniProt:P54764
- Sequence (P54764 whole entry, looked up): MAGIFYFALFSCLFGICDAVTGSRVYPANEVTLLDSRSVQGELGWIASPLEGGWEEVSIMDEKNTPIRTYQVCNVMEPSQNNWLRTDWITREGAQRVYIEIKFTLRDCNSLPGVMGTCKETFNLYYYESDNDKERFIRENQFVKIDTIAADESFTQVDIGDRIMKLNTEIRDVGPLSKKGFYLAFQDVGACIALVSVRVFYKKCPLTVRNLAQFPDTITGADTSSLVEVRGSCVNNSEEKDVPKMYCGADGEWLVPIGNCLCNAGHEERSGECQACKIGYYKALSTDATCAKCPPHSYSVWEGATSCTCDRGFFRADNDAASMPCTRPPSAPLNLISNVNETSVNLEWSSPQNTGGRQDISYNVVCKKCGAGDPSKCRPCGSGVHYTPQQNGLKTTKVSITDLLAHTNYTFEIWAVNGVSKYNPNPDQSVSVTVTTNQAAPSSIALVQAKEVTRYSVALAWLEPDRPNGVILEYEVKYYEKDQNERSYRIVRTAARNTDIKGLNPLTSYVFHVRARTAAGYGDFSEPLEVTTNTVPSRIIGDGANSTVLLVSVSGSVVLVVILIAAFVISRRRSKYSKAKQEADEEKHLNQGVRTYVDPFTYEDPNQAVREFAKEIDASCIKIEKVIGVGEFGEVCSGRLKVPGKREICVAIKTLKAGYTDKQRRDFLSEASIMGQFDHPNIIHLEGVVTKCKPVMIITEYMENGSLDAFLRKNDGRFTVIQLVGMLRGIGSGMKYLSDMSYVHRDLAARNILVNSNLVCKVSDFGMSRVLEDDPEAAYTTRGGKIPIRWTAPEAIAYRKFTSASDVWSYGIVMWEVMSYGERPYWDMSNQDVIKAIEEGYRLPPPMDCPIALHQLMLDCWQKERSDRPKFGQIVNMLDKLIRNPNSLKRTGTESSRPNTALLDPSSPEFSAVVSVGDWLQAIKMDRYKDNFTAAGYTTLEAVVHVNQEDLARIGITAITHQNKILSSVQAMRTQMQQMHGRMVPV
- assay_details: radiometric filter-binding kinase assay, Kinase HotSpot
- details: compound 0.5 µM; ATP 10 µM
Here the recorded residual activity is given for each entry.
parameter: residual activity (%)

[[record]]
compound = "O=C1NC(=O)C(c2cn(CCCO)c3ncccc23)=C1c1cnccn1"
tested_target = "UniProt:P54764"
reading = 99.5

[[record]]
compound = "Nc1nccc(-c2c(-c3ccc(F)cc3)ncn2C2CCNCC2)n1"
tested_target = "UniProt:P54764"
reading = 99.8

[[record]]
compound = "O=C1Nc2ccccc2/C1=C1\\Nc2ccccc2\\C1=N/O"
tested_target = "UniProt:P54764"
reading = 89.4

[[record]]
compound = "O=C(O)/C=C/c1cc(Br)c(Br)c(Br)c1Br"
tested_target = "UniProt:P54764"
reading = 88.8

[[record]]
compound = "Cn1sc(=O)n(Cc2ccccc2)c1=O"
tested_target = "UniProt:P54764"
reading = 110

[[record]]
compound = "O=C(Nc1cccc(Nc2cc(Nc3cccc(C(F)(F)F)c3)ncn2)c1)C1CC1"
tested_target = "UniProt:P54764"
reading = 96.5

[[record]]
compound = "COc1ccc(OC)c2c(=S)c3ccccc3[nH]c12"
tested_target = "UniProt:P54764"
reading = 88.8

[[record]]
compound = "CCN(CC)CCCCN1c2ccccc2Oc2ccc(Cl)cc21"
tested_target = "UniProt:P54764"
reading = 91.9

[[record]]
compound = "CC(C)c1nn(-c2c(Cl)cccc2Cl)c2nc(Cc3ccc(OCCO)cc3)nc(O)c12"
tested_target = "UniProt:P54764"
reading = 102

[[record]]
compound = "Oc1ccc(Nc2nc(-c3ccc(Cl)cc3)cs2)cc1"
tested_target = "UniProt:P54764"
reading = 104

[[record]]
compound = "CC(=O)O/N=C1\\C(=C2\\C(=O)Nc3cc(Br)ccc32)Nc2ccccc21"
tested_target = "UniProt:P54764"
reading = 87.6

[[record]]
compound = "Cn1nc2c3c(cccc31)C(=O)c1ccccc1-2"
tested_target = "UniProt:P54764"
reading = 104

[[record]]
compound = "Cc1nc2cc3nc(-c4cccs4)cnc3cc2n1C"
tested_target = "UniProt:P54764"
reading = 93.1

[[record]]
compound = "O=C1NC(=O)C(c2c[nH]c3ccccc23)=C1c1c[nH]c2ccccc12"
tested_target = "UniProt:P54764"
reading = 87.6

[[record]]
compound = "O=C1NC(=O)/C(=C\\c2ccc3nccnc3c2)S1"
tested_target = "UniProt:P54764"
reading = 96

[[record]]
compound = "COc1ccc(CNC(=O)Nc2ncc([N+](=O)[O-])s2)cc1"
tested_target = "UniProt:P54764"
reading = 101

[[record]]
compound = "Cn1cnc2cc3c(Nc4cccc(Br)c4)ncnc3cc21"
tested_target = "UniProt:P54764"
reading = 80.7

[[record]]
compound = "COc1cc2ncnc(N3CCN(C(=O)Nc4ccc(Oc5ccccc5)cc4)CC3)c2cc1OC"
tested_target = "UniProt:P54764"
reading = 93.2

[[record]]
compound = "COc1cc2ncc(-c3ccccc3)nc2cc1OC"
tested_target = "UniProt:P54764"
reading = 99.3

[[record]]
compound = "O=C1Nc2ccccc2/C1=C1/Nc2ccccc2/C1=N\\OCCC(O)CO (configuration not stated)"
tested_target = "UniProt:P54764"
reading = 77.9

[[record]]
compound = "Nc1nnc2[nH]c3ccccc3nc1-2"
tested_target = "UniProt:P54764"
reading = 86.5

[[record]]
compound = "CN(C)C[C@H]1CCn2c(c(C3=C(c4cn(C)c5ccccc45)C(=O)NC3=O)c3ccccc32)C1"
tested_target = "UniProt:P54764"
reading = 103

[[record]]
compound = "O=C(CCCc1ccc(-c2ccccc2F)cc1)Nc1ccc(O)cc1"
tested_target = "UniProt:P54764"
reading = 99.2

[[record]]
compound = "O=C1Cc2c([nH]c3ccc(Br)cc23)-c2ccccc2N1"
tested_target = "UniProt:P54764"
reading = 96.1

[[record]]
compound = "CC(C)[C@H](CO)Nc1nc(Nc2cc(N)cc(Cl)c2)c2ncn(C(C)C)c2n1"
tested_target = "UniProt:P54764"
reading = 61.4

[[record]]
compound = "CCn1cnc2c(Nc3cccc(Cl)c3)nc(N[C@@H]3CCCC[C@@H]3N)nc21"
tested_target = "UniProt:P54764"
reading = 78.5

[[record]]
compound = "CN([C@@H](Cc1ccc(OS(=O)(=O)c2cccc3cnccc23)cc1)C(=O)N1CCN(c2ccccc2)CC1)S(=O)(=O)c1cccc2cnccc12"
tested_target = "UniProt:P54764"
reading = 95.4

